Data origin: patent US20080039442A1

Target Entity: human Kv4.3/KChIP2.2 potassium channel (Homo sapiens, UniProt Q9UK17)
Construct: expressed in transfected cells
Sequence (Q9UK17 whole entry): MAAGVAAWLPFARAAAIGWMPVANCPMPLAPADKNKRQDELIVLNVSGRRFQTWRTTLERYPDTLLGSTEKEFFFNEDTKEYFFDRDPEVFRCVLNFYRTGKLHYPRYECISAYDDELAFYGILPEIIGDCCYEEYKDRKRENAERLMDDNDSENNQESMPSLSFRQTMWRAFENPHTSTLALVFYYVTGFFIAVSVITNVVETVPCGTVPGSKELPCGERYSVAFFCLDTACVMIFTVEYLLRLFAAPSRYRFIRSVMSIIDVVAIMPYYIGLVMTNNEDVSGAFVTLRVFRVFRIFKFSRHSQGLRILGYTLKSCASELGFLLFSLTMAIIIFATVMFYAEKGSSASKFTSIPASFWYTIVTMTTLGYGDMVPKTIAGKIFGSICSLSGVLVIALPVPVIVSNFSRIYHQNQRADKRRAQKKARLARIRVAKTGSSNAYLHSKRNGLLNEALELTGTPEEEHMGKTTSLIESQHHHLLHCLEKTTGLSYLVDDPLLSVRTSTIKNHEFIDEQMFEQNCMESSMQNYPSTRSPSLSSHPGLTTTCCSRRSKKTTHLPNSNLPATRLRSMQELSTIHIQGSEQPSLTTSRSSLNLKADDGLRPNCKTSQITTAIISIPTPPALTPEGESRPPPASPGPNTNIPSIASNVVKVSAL
Sequence (Q9NS61 whole entry partner): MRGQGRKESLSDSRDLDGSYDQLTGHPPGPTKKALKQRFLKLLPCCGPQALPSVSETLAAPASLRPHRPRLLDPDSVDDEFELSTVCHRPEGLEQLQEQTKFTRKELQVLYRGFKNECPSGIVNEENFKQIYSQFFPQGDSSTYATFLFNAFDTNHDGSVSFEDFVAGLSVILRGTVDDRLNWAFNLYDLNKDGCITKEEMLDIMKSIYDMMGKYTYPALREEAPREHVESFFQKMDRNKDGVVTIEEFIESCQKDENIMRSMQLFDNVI
Assay Protocol: Whole cell patch clamp, CHO-K1 cells stably expressing Kv4.3/KChIP2.2
Type: cell-based
Condition Info: CHO-K1; 1 μM; read-out: Kv4.3 charge in %: remaining current measured after application of the compound and relative to the blank
Value Type: remaining activity at 1 µM (%)

Example cases with answers are listed next.
- Compound: "O=C(NC1Cc2ccccc2C1)c1cc2cc(Cl)ccc2o1"
  remaining activity at 1 µM / %: 82
- Compound: "COc1ccc(CNC(=O)c2oc3ccc(Cl)cc3c2C)c(OC)c1"
  remaining activity at 1 µM / %: 24
- Compound: "O=C(c1cc2cc(Cl)ccc2o1)N1CC=C(c2ccc(F)cc2)CC1"
  remaining activity at 1 µM / %: 73
- Compound: "O=C(c1cc2cc(Cl)ccc2o1)N1CCC(c2ccccc2)CC1"
  remaining activity at 1 µM / %: 89
- Compound: "Cc1ccc(C2CCN(C(=O)c3cc4cc(Cl)ccc4o3)CC2)cc1"
  remaining activity at 1 µM / %: 80
- Compound: "COc1ccc(NC(=O)c2cc3cc(Cl)ccc3o2)c(OC)c1"
  remaining activity at 1 µM / %: 85
- Compound: "COc1ccc(CC(=O)Nc2cc3ccccc3o2)c(OC)c1"
  remaining activity at 1 µM / %: 90
- Compound: "CN(C)CC(NC(=O)c1cc2cc(Cl)ccc2o1)c1ccccc1 (stereo not shown)"
  remaining activity at 1 µM / %: 85

P: COc1ccc(CNC(=O)c2oc3ccccc3c2C)c(OC)c1
Q: O=C(OCc1ccccc1)c1cc2cc(Cl)ccc2o1
Returns: the argument ( P or Q ) having the larger remaining activity at 1 µM. Answer with the label corresponding to your selection.
P
(P: 70%, Q: 45%)
